Target Desc: T1, soluble KIR3DL1*002-Fc (human, UniProt P43629 22-338)
T1 construct: also called KIR3DL1 allele 002; Allele 002; not shown: Fc domain
T1 sequence (P43629 other isoform, or with tags, fused parts or gaps): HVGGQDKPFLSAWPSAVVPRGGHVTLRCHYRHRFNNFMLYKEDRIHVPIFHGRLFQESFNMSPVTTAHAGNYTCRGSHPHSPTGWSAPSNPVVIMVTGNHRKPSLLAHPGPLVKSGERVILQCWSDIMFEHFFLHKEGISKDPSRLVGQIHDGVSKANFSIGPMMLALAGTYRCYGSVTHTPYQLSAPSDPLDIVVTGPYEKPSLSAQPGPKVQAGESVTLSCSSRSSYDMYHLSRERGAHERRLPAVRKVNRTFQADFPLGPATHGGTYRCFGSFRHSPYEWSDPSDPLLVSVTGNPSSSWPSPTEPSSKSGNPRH
Test Name: SPR (BIACORE T-100), kinetics
Property Name: Kd (nM)
The figure you give is taken to be in nM; do not add the unit.

Request: // query Kd value for entry ET160-74 (antibody, human IgG1, V domains shown, Tested as human IgG1 (hIgG1), lambda light chain) VH: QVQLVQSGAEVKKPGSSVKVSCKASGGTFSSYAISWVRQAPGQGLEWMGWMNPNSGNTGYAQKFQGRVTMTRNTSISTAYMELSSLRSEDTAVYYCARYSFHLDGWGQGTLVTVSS VL: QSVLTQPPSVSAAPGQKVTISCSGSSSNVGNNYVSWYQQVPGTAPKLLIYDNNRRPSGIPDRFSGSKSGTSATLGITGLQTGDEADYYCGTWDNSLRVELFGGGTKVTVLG
Result: 108

Request: // query Kd value for entry ET160-77 (antibody, human IgG1, V domains shown, Tested as human IgG1 (hIgG1), lambda light chain) VH: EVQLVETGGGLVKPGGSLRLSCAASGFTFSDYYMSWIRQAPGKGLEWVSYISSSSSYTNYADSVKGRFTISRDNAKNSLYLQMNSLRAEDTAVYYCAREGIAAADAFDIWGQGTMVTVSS VL: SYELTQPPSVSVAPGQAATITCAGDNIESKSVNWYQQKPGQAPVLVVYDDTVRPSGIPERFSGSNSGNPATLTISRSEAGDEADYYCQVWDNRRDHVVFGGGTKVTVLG
Result: 197
